Species on record: Rattus norvegicus
Test: Open TG-GATES - Regimen: Single
Format: toxicity, organism-based, Sprague-Dawley
Set-up: regimen Single, gender Male, age 6 weeks
Conditions: in vivo, po, 1000 mg/kg, 24 h, tissue Plasma, route gavage, dose level High
RESULT TYPE: TC
Write the numeric value and follow it with the unit.

Ask: May I ask what TC has been recorded for C[C@H](CS)C(=O)N1CCC[C@H]1C(=O)O ?
Reply: 81.4 mg/dL

Ask: Entry CCc1cc(C(N)=S)ccn1 [ETHIONAMIDE] please
Reply: 41.4 mg/dL

Ask: Entry O=C(O)c1cn(C2CC2)c2cc(N3CCNCC3)c(F)cc2c1=O please
Reply: 84 mg/dL

Ask: Entry O=C(O)c1cc(/N=N/c2ccc(S(=O)(=O)Nc3ccccn3)cc2)ccc1O please
Reply: 79.8 mg/dL

Ask: Entry Clc1ccccc1CN1CCc2sccc2C1 please
Reply: 86 mg/dL

====

Hi there, I'd appreciate the recorded MCV for every entry that follows.
Organism: Rattus norvegicus
Experiment: Open TG-GATES - Regimen: Single
Type: toxicity, organism-based, Sprague-Dawley
Parameters: regimen Single, gender Male, age 6 weeks
Settings: in vivo, po, 100 mg/kg, 3 h, tissue Blood, route gavage, dose level Low
Give just the number in fL; leave the unit off.

Ask: May I ask what MCV has been recorded for CCc1cc(C(N)=S)ccn1 [ETHIONAMIDE] ?
Reply: 64

Ask: Entry O=C(O)c1cn(C2CC2)c2cc(N3CCNCC3)c(F)cc2c1=O [CIPROFLOXACIN] please
Reply: 67.5

Ask: Entry O=C(O)c1cc(/N=N/c2ccc(S(=O)(=O)Nc3ccccn3)cc2)ccc1O [SULFASALAZINE] please
Reply: 63.4

Ask: Entry Clc1ccccc1CN1CCc2sccc2C1 [TICLOPIDINE] please
Reply: 61.1

Ask: Entry C[C@H](CS)C(=O)N1CCC[C@H]1C(=O)O [CAPTOPRIL] please
Reply: 64.4

====

Species on record: Rattus norvegicus
Test: Open TG-GATES - Regimen: Daily Repeat
Assay type: toxicity, organism-based, Sprague-Dawley
Parameters: regimen Daily Repeat, gender Male, age 6 weeks
Settings: in vivo, po, 0 mg/kg, 72 h, tissue Blood, route gavage, dose level Control, time 3 day
RESULT TYPE: Bas (%)
Give just the number in %; leave the unit off.

Ask: May I ask what Bas has been recorded for Clc1ccccc1CN1CCc2sccc2C1 ?
Reply: 0.6

Ask: Entry Cn1c(=O)c2[nH]cnc2n(C)c1=O.O please
Reply: 0

Ask: Entry COc1ccc(Cc2nccc3cc(OC)c(OC)cc23)cc1OC please
Reply: 0

Ask: Entry NC(=O)N/N=C/c1ccc([N+](=O)[O-])o1 please
Reply: 0

Ask: Entry CCc1cc(C(N)=S)ccn1 [ETHIONAMIDE] please
Reply: 0

Ask: Entry CN(C)CCC=C1c2ccccc2CCc2ccccc21 please
Reply: 0

====

Species: Rattus norvegicus
Test: Open TG-GATES - Regimen: Single
Format: toxicity, organism-based, Sprague-Dawley
Parameters: regimen Single, gender Male, age 6 weeks
Conditions: in vivo, po, 0 mg/kg, 24 h, tissue Blood, route gavage, dose level Control
RESULT TYPE: Mono (%)
Give just the number in %; leave the unit off.

Ask: May I ask what Mono has been recorded for COc1ccc(Cc2nccc3cc(OC)c(OC)cc23)cc1OC ?
Reply: 2.8

Ask: Entry C[C@H](CS)C(=O)N1CCC[C@H]1C(=O)O please
Reply: 5.8

Ask: Entry CN(C)CCC=C1c2ccccc2CCc2ccccc21 please
Reply: 3.2

Ask: Entry O=C(O)c1cn(C2CC2)c2cc(N3CCNCC3)c(F)cc2c1=O please
Reply: 7.2

Ask: Entry COc1cc2c(c3oc(=O)c4c(c13)CCC4=O)[C@@H]1C=CO[C@@H]1O2 please
Reply: 2.8

Ask: Entry CCc1cc(C(N)=S)ccn1 [ETHIONAMIDE] please
Reply: 7.6

Ask: Entry CC(=O)Oc1ccccc1C(=O)O please
Reply: 2.8

Ask: Entry NC(=O)N1c2ccccc2C=Cc2ccccc21 [CARBAMAZEPINE] please
Reply: 2.4

Ask: Entry CSc1ccc2c(c1)N(CCC1CCCCN1C)c1ccccc1S2 (stereo not drawn) please
Reply: 9.4

Ask: Entry NC(=O)N/N=C/c1ccc([N+](=O)[O-])o1 please
Reply: 3.2

Ask: Entry Cn1c(=O)c2[nH]cnc2n(C)c1=O.O please
Reply: 2.6

Ask: Entry Clc1ccccc1CN1CCc2sccc2C1 please
Reply: 3.6

Ask: Entry O=C(O)c1cc(/N=N/c2ccc(S(=O)(=O)Nc3ccccn3)cc2)ccc1O please
Reply: 3.6

====

Organism: Rattus norvegicus
Experiment: Open TG-GATES - Regimen: Single
Assay type: toxicity, organism-based, Sprague-Dawley
Parameters: regimen Single, gender Male, age 6 weeks
Conditions: in vivo, po, 1000 mg/kg, 3 h, tissue Blood, route gavage, dose level High
RESULT TYPE: Ret (%)
Give just the number in %; leave the unit off.

Ask: May I ask what Ret has been recorded for O=C(O)c1cc(/N=N/c2ccc(S(=O)(=O)Nc3ccccn3)cc2)ccc1O ?
Reply: 7

Ask: Entry CCc1cc(C(N)=S)ccn1 [ETHIONAMIDE] please
Reply: 7.9

Ask: Entry Clc1ccccc1CN1CCc2sccc2C1 please
Reply: 8.6

Ask: Entry O=C(O)c1cn(C2CC2)c2cc(N3CCNCC3)c(F)cc2c1=O please
Reply: 11.2

Ask: Entry C[C@H](CS)C(=O)N1CCC[C@H]1C(=O)O please
Reply: 8.4

====

Organism: Rattus norvegicus
Test: Open TG-GATES - Regimen: Single
Format: toxicity, organism-based, Sprague-Dawley
Set-up: regimen Single, gender Male, age 6 weeks
Conditions: in vivo, po, 300 mg/kg, 6 h, tissue Kidney, route gavage, dose level Middle
RESULT TYPE: KIDNEY_R (g)
Give just the number in g; leave the unit off.

Ask: May I ask what KIDNEY_R has been recorded for C[C@H](CS)C(=O)N1CCC[C@H]1C(=O)O ?
Reply: 1

Ask: Entry CCc1cc(C(N)=S)ccn1 [ETHIONAMIDE] please
Reply: 1

Ask: Entry O=C(O)c1cn(C2CC2)c2cc(N3CCNCC3)c(F)cc2c1=O please
Reply: 0.8

Ask: Entry O=C(O)c1cc(/N=N/c2ccc(S(=O)(=O)Nc3ccccn3)cc2)ccc1O please
Reply: 0.9

Ask: Entry Clc1ccccc1CN1CCc2sccc2C1 please
Reply: 1

====

Hi there, I'd appreciate the recorded ALP for every entry that follows.
Organism: Rattus norvegicus
Assay: Open TG-GATES - Regimen: Single
Type: toxicity, organism-based, Sprague-Dawley
Set-up: regimen Single, gender Male, age 6 weeks
Details: in vivo, po, 0 mg/kg, 24 h, tissue Plasma, route gavage, dose level Control
Give just the number in IU/L; leave the unit off.

Ask: May I ask what ALP has been recorded for COc1ccc(Cc2nccc3cc(OC)c(OC)cc23)cc1OC [PAPAVERINE] ?
Reply: 1563.2

Ask: Entry O=C(O)c1cn(C2CC2)c2cc(N3CCNCC3)c(F)cc2c1=O [CIPROFLOXACIN] please
Reply: 1038.8

Ask: Entry C[C@H](CS)C(=O)N1CCC[C@H]1C(=O)O [CAPTOPRIL] please
Reply: 943.6

Ask: Entry NC(=O)N1c2ccccc2C=Cc2ccccc21 [CARBAMAZEPINE] please
Reply: 990.6

Ask: Entry CC(=O)Oc1ccccc1C(=O)O [ASPIRIN] please
Reply: 1023.4

Ask: Entry CN(C)CCC=C1c2ccccc2CCc2ccccc21 [AMITRIPTYLINE] please
Reply: 1573.8

Ask: Entry O=C(O)c1cc(/N=N/c2ccc(S(=O)(=O)Nc3ccccn3)cc2)ccc1O [SULFASALAZINE] please
Reply: 961.8

Ask: Entry CSc1ccc2c(c1)N(CCC1CCCCN1C)c1ccccc1S2 (stereo not given) [THIORIDAZINE] please
Reply: 895

Ask: Entry CCc1cc(C(N)=S)ccn1 [ETHIONAMIDE] please
Reply: 856.4

Ask: Entry NC(=O)N/N=C/c1ccc([N+](=O)[O-])o1 [NITROFURAZONE] please
Reply: 1711.4

====

Hi there, I'd appreciate the recorded Mono for every entry that follows.
Species on record: Rattus norvegicus
Assay: Open TG-GATES - Regimen: Daily Repeat
Type: toxicity, organism-based, Sprague-Dawley
Design: regimen Daily Repeat, gender Male, age 6 weeks
Conditions: in vivo, po, 0 mg/kg, 72 h, tissue Blood, route gavage, dose level Control, time 3 day
Give just the number in %; leave the unit off.

Ask: May I ask what Mono has been recorded for Clc1ccccc1CN1CCc2sccc2C1 [TICLOPIDINE] ?
Reply: 3.2

Ask: Entry NC(=O)N1c2ccccc2C=Cc2ccccc21 [CARBAMAZEPINE] please
Reply: 3.6

Ask: Entry C[C@H](CS)C(=O)N1CCC[C@H]1C(=O)O [CAPTOPRIL] please
Reply: 5.8

Ask: Entry CO[C@H]1/C=C/O[C@@]2(C)Oc3c(C)c(O)c4c(O)c(c(/C=N/N5CCN(C)CC5)c(O)c4c3C2=O)NC(=O)/C(C)=C\C=C\[C@H](C)[C@H](O)[C@@H](C)[C@@H](O)[C@@H](C)[C@H](OC(C)=O)[C@@H]1C [RIFAMPIN] please
Reply: 7.2

Ask: Entry CCc1cc(C(N)=S)ccn1 [ETHIONAMIDE] please
Reply: 7.6

Cited source: ChEMBL document CHEMBL3885861
